tested_on: HLA-DR2 molecules (Homo sapiens, UniProt P01903+P01911)
Construct: Soluble HLA-DR2 molecules were expressed in Drosophila S2 cells and purified as described; made in house; host or cells: Drosophila S2 cells
assay_protocol: Competitive binding assay: inhibition of biotinylated MBP 85-99 binding to HLA-DR2 molecules
applied_conditions: read-out: IC50 (μM) vs. biotinylated: MBP 95-99
measured_quantity: IC50

C[C@H](NC(=O)[C@H](C)NC(=O)[C@H](C)NC(=O)[C@H](C)NC(=O)[C@H](C)NC(=O)[C@H](C)NC(=O)[C@H](C)NC(=O)[C@H](C)NC(=O)[C@H](C)NC(=O)[C@H](C)NC(=O)[C@H](C)NC(=O)[C@H](Cc1ccc(O)cc1)NC(=O)[C@H](CCC(=O)O)NC(=O)[C@H](CCC(=O)O)NC(=O)[C@@H](N)CCCCN)C(=O)O : > 1000 µM

Shift focus to the following entry.
Lookup: Given `CC(C)[C@H](NC(=O)[C@H](CCCCN)NC(=O)[C@H](CCC(=O)O)NC(=O)[C@H](C)NC(=O)[C@H](C)N)C(=O)N[C@@H](C)C(=O)N[C@@H](C)C(=O)N[C@@H](C)C(=O)N[C@@H](C)C(=O)N[C@@H](C)C(=O)N[C@@H](C)C(=O)N[C@@H](C)C(=O)N[C@@H](C)C(=O)N[C@@H](C)C(=O)N[C@@H](C)C(=O)O` , report its IC50 on HLA-DR2 molecules (Homo sapiens, UniProt P01903+P01911).
Found: > 1000 µM
